System: c-Abl (mouse)
Assay: phosphorylation enrichment, bacterial display (enrichment ratio); higher = better substrate or ligand; peptides without Tyr show the background;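 further: 11-residue human phosphosite peptides and single-mutation variants displayed on the E. coli surface, counted by deep sequencing, each peptide's frequency after selection divided by its frequency in the unselected input library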;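 further: frequency after pTyr selection over input frequency; kinase dosed for 20-30% of maximal phosphorylation in three min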
Assignment: determine reported phosphorylation enrichment for the given sequences.

Past entries and their recorded results:
* PSQRRNVYYYS [PTEN_Y174_Y174N] | 0.47
* SETSRYLSDLF [KCNJ3_Y67] | 0.844
* SGSIHYSRVPR [GLB1_Y57] | 0.716
* ESDYTYSSSYE [SRPK2_Y427] | 0.725

Give me phosphorylation enrichment for each of these sequences, listed below.
1. FIILIYAMKKK [SLCO1B1_Y645_YF]
2. TCFDKYTGNTF [FN1_Y101_YF]

[reply]
1: 0.51; 2: 0.93

Dear colleague, could you send me phosphorylation enrichment for each of the items below? Thanks.
1. LREKVYVSLEA [RXRA_Y397_A398V]
2. EWKNNYPRLRE [OPA1_Y582]
3. RIFDYYSARKT [STOX1_Y858_A863T]
4. FDGKDYIALKE [HLA-A_Y147_N151K_YF]
5. QEGPEYWDGNT [HLA-B_Y83_R86G]
6. LVLIKYLPEWT [PSEN1_Y240_F237L]
7. EEQKKYYNAMK [SCN5A_Y1494]

[reply]
0.542
0.797
0.259
0.536
1.08
1.07
0.525

* * *

Target: MERTK (UniProt Q12866)
Sequence (Q12866 whole entry, looked up): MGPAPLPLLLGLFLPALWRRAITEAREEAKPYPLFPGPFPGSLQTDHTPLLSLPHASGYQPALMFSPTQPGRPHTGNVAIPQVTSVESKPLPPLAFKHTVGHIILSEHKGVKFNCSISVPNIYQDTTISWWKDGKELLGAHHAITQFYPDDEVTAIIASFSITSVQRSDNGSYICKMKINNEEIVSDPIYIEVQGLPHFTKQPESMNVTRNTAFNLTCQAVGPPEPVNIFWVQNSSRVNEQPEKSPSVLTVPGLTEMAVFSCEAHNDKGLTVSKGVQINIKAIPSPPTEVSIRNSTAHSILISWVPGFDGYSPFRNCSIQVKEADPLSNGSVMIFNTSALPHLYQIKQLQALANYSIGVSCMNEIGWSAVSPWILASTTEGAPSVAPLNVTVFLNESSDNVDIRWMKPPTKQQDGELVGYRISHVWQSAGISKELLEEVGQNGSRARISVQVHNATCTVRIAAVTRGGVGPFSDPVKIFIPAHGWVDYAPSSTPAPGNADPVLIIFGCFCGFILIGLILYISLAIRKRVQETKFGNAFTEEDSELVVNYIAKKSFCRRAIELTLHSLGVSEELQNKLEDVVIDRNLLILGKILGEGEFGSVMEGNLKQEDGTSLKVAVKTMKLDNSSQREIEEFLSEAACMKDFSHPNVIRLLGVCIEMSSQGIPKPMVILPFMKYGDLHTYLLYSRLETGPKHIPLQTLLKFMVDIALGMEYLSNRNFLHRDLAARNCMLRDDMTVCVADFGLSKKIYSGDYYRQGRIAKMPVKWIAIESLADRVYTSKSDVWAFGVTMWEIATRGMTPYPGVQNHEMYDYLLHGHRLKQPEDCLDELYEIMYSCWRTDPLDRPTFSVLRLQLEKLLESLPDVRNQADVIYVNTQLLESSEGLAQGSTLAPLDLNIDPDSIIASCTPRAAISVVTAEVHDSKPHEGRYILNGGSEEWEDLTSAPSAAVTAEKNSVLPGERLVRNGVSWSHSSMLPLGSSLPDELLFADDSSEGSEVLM
Assay: phosphorylation enrichment, bacterial display (enrichment ratio); higher = better substrate or ligand; peptides without Tyr show the background
PROPERTY LABEL: phosphorylation enrichment
Answers are plain numbers.

Worked cases, answers included:
• YASALYGQRRS [FGF11_Y162_R163G] = 0.505
• FASTGYGIAIQ [GRIN2B_Y762] = 0.408
• KILGRYYETSS [PAX2_Y72_G76S] = 0.453
• LSSLAYSGKDA [FXN_Y205] = 0.307

Okay, next one:
[ask] Which phosphorylation enrichment value is on record for EDSEYYKAFEE [CASQ2_Y179] ?
[reply] 0.372

* * *

Provide the recorded phosphorylation enrichment for the entries that follow.
Target: Jak2 (UniProt O60674)
Sequence (O60674 whole entry, looked up): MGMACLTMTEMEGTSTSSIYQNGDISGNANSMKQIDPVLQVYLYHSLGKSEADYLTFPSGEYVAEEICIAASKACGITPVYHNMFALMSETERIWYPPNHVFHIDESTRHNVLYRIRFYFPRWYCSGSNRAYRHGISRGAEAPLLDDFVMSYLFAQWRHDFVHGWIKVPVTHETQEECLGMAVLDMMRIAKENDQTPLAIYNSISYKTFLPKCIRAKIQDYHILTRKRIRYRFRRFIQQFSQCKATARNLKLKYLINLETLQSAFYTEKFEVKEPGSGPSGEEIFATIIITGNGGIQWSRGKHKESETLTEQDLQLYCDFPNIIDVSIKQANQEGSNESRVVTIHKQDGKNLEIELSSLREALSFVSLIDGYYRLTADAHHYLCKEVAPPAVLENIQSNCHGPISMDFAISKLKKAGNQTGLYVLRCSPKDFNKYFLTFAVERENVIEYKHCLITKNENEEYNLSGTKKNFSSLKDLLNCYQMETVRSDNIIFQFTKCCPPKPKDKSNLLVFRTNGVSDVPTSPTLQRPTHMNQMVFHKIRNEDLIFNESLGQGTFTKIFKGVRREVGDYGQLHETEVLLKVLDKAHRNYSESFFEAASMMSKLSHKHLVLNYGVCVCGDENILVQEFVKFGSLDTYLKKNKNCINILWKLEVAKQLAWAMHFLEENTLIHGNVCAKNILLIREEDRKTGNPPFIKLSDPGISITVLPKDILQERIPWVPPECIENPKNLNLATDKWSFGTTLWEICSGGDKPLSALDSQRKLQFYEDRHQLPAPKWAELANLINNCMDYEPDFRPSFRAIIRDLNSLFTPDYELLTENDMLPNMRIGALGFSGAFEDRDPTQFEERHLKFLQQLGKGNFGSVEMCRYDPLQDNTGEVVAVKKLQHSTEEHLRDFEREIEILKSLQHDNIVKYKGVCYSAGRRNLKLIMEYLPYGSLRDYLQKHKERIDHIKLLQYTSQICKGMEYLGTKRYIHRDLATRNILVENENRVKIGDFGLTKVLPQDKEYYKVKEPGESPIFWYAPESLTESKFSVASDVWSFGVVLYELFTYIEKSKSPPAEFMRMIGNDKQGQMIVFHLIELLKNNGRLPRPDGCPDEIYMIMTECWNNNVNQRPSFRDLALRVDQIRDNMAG
Assay: phosphorylation enrichment, bacterial display (enrichment ratio); higher = better substrate or ligand; peptides without Tyr show the background
One number for each entry.

Reference set, count: 6
* PNRILYGDFWQ [MYH6_Y717_R721W] | 0.999
* YNDSAYNQQLI [ZPLD1_Y198_T197A] | 0.696
* GRRNTYFASIA [ACADM_Y352_YF] | 0.5
* QTLTDYDIRFY [CSNK2A1_Y131] | 1.18
* YPIDHYLGKEM [G6PD_Y202_R198P] | 0.806
* LTYHMYADPNF [SOS1_Y618] | 2.66

Please state, for each entry, its recorded phosphorylation enrichment.
1. EKKKYYDAKIE [CASP5_Y104_T106A]
2. VIKDKYPKARY [APTX_Y209]

[reply]
1. 0.912
2. 0.83

Would you mind giving phosphorylation enrichment for every sequence in the list below?
1. GLSSAYGDLTS [KRT8_Y427_G429D]
2. EEQKKYYNAMK [SCN5A_Y1494]

[reply]
[0.535, 0.674]

Each sequence below has a recorded value; state its phosphorylation enrichment.
1. IQKWEYVPLGP [FAH_Y244]
2. GVRFTYTIDGS [DCX_Y105_I104T_YF]
3. FDGKDYIALKE [HLA-A_Y147_N151K_YF]
4. PSALGYSPSLR [LLGL2_Y40]

[reply]
1. 1.43
2. 1.24
3. 0.659
4. 0.908

Please report phosphorylation enrichment for every entry that follows.
1. QKNVSYVSTVS [TASOR_Y1043]
2. MAFDRYAAICS [OR8H2_Y123_H120Y_YF]
3. FFDANYDGKEF [MAPRE2_Y162_YF]
4. TDKLFYIFTSG [SLC27A4_Y243_YF]
5. CSDPSYVKQME [CDC5L_Y464_Y459C]
6. GTVRDYPDFSP [ANXA3_Y15]
7. KFVKMYDNHQL [MYO9A_Y203_YF]

[reply]
0.401
1.2
0.957
1.41
1.13
0.702
0.402

// provenance: the supplement of paper PMC10065799
